assay-method-text: in vitro
condition-notes: human, hela cells, % viability
reported-property: viability at 28.5 h, 10 µM (%)
Numeric only. Scale: %

Here are 4 compounds together with their reported answers.
>  <compound>
CCCN1CCC(NC(=O)Cn2nnc3ccccc3c2=O)CC1

>  <reported-property>
viability at 28.5 h, 10 µM

>  <numeric-value>
102

$$$$
>  <compound>
Cc1ccc2c(c1)C(c1c[nH]c3ccccc13)(c1c[nH]c3ccccc13)C(=O)N2C

>  <reported-property>
viability at 28.5 h, 10 µM

>  <numeric-value>
103

$$$$
>  <compound>
CC(C)(C)C(O)CNc1ncnc2ccc(S(C)(=O)=O)cc12 (stereo not drawn)

>  <reported-property>
viability at 28.5 h, 10 µM

>  <numeric-value>
76.8

$$$$
>  <compound>
COC(=O)c1ccc(-c2ccc(F)cc2OC)nc1

>  <reported-property>
viability at 28.5 h, 10 µM

>  <numeric-value>
88.3

$$$$

Looking up CCn1cc(C(=O)N2CCn3cc(C(F)(F)F)nc3C2)c(C)n1 , I see its viability at 28.5 h, 10 µM listed as 93.8

Looking up COc1ccc(CCCC(=O)Nc2cc3cccnc3c(Br)n2)cc1 , I see its viability at 28.5 h, 10 µM listed as 99.6

Looking up C[n+]1cn(/N=C/c2ccco2)cn1 [CBK028562I] , I see its viability at 28.5 h, 10 µM listed as 104

Looking up CNC(=O)C1(Cc2ccccc2-c2ccccc2)CCN(C(=O)Cc2ccc(C)cc2)CC1 , I see its viability at 28.5 h, 10 µM listed as 88.4

Looking up COc1ccc(C2(C(=O)N3CCC(c4ccncc4)CC3)CC2)cc1 , I see its viability at 28.5 h, 10 µM listed as 111

Looking up CCCCCSc1c(C#N)nc(N2CCOCC2)c2c1CC(C)(C)OC2 , I see its viability at 28.5 h, 10 µM listed as 92.1
